Data credit: ChEMBL document CHEMBL4007450

- test system: NAD-dependent protein deacetylase sirtuin-2 (Homo sapiens)
- Sequence (whole entry): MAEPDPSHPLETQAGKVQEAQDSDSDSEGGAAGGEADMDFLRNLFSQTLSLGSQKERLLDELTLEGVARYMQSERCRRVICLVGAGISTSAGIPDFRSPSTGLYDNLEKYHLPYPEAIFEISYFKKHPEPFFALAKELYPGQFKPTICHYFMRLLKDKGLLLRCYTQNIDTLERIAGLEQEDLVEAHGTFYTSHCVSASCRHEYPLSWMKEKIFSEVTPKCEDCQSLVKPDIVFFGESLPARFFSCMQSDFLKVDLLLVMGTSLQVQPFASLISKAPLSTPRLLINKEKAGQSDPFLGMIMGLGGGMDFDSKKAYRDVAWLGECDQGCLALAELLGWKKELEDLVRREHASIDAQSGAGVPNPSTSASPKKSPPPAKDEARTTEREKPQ
- assay procedure: Inhibition of human N-terminal His6-SUMO-tagged SIRT2 catalytic domain (43 to 356 residues) deacetylase activity expressed in Escherichia coli using alpha-tubulin-acetylLys40 peptide as substrate at 100 uM after 45 mins in presence of NAD+ by pNCA/GDH-based microplate spectrophotometric analysis
The source made the active and inactive calls. The calls are words filed in the database; no cut-off is given here.
Assign a class; possible classes are YES (active), NO (inactive)

Look over these answered cases.
# compound, answer label
data = [
    ("Clc1ccc(-c2noc(CN3CCSCC3)n2)cc1", "YES"),
    ("Clc1ccc(-c2noc(CCCN3CCCCC3)n2)cc1", "NO"),
    ("CN(C)Cc1nc(-c2ccc([N+](=O)[O-])cc2)no1", "NO"),
    ("Clc1ccc(-c2noc(CCCBr)n2)cc1", "YES"),
    ("Clc1ccc(-c2noc(CN3CCCCCC3)n2)cc1", "YES"),
    ("Clc1ccc(-c2noc(CNC3CCCCC3)n2)cc1", "YES"),
]

Then this compound:
[Q] So what was the verdict on "CCN(CC)Cc1nc(-c2ccc([N+](=O)[O-])cc2)no1" in this test?
[A] NO
